Protocol Description: Induction of osteoblastic differentiation in mouse ST2 cells assessed as increase in alkaline phosphatase activity after 4 days by lowry method
Assay type: functional
Entries and their measured EC200 follow.

NC(=O)c1sc2nccc(N3CCCN(c4ccc(C(=O)O)cc4)CC3)c2c1N :: >1 µg/mL
Cc1ccccc1N1CCCN(c2ccnc3sc(C(N)=O)c(N)c23)CC1 :: >1 µg/mL

Value lookup for EC200; key = "CC(C)Oc1ccc(N2CCCN(c3ccnc4sc(C(N)=O)c(N)c34)CC2)cc1"
>1 µg/mL
